Target: Beta-lactamase (Enterobacter cloacae)
Sequence (P05364 whole entry): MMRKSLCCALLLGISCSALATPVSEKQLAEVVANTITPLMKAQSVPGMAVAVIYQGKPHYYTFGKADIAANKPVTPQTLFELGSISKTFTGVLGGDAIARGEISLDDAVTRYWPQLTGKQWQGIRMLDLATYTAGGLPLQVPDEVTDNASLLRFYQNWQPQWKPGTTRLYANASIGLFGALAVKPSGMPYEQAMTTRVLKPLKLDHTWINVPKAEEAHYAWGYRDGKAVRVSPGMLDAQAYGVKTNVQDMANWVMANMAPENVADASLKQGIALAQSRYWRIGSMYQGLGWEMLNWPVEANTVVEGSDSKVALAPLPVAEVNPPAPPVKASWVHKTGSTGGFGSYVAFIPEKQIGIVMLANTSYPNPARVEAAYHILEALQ
Assay: Binding affinity to Enterobacter cloacae P99 beta-lactamase assessed as increase in molecular weight of enzyme-compound complex by mass-spectra analysis (reference value: 39192 Da)
Each record here notes measured Activity.
metric: Activity (Da)

[
  {
    "lineNotation": "N[C@H](Cc1ccc(OC(=O)NOC(=O)Oc2ccccc2)cc1)C(=O)O",
    "unitSpec": "Da",
    "reportedValue": 26
  },
  {
    "lineNotation": "O=C(O)CCCCOC(=O)NOC(=O)Oc1ccccc1",
    "unitSpec": "Da",
    "reportedValue": 26
  },
  {
    "lineNotation": "O=C(NOC(=O)Oc1ccccc1)OCCc1ccccc1",
    "unitSpec": "Da",
    "reportedValue": 26
  },
  {
    "lineNotation": "CCCCOC(=O)NOC(=O)Oc1ccccc1",
    "unitSpec": "Da",
    "reportedValue": 185
  }
]

* * *

Biological target: Beta-lactamase (Enterobacter cloacae) (UniProt P05364)
Sequence (P05364 21-381 limits assumed): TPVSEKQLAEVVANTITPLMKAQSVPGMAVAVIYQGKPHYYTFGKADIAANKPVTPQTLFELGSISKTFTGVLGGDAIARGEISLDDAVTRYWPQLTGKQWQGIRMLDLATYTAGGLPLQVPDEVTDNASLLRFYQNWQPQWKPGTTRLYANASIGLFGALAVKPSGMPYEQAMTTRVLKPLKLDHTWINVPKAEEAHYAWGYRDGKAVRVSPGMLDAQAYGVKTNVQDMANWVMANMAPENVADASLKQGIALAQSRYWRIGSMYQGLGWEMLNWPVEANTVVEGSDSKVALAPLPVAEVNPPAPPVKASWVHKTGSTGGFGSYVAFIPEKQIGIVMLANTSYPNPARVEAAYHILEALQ
Assay: Irreversible inhibition of Enterobacter cloacae P99 beta-lactamase assessed as second-order rate constant for enzyme-inhibitor complex using cephalothin as substrate by spectrophotometric analysis

[
  {
    "lineNotation": "O=C(NOC(=O)Oc1ccccc1)OCCc1ccccc1",
    "K (×10⁴ /M/s)": 3.7
  },
  {
    "lineNotation": "N[C@H](CCCOC(=O)NOC(=O)Oc1ccccc1)C(=O)O",
    "K (×10⁴ /M/s)": 3.5
  },
  {
    "lineNotation": "O=C(O)CCCCOC(=O)NOC(=O)Oc1ccccc1",
    "K (×10⁴ /M/s)": 2.8
  }
]

* * *

Biological target: Beta-lactamase (Enterobacter cloacae) (UniProt P05364)
Experiment: Irreversible inhibition of Enterobacter cloacae P99 beta-lactamase assessed as ratio of K2/K3 using cephalothin as substrate by spectrophotometric analysis
Each record here notes measured Ratio.
metric: Ratio

[
  {
    "lineNotation": "O=C(NOC(=O)Oc1ccccc1)OCc1ccccc1",
    "metric": "Ratio",
    "reportedValue": 2
  },
  {
    "lineNotation": "N[C@H](CCCOC(=O)NOC(=O)Oc1ccccc1)C(=O)O",
    "metric": "Ratio",
    "reportedValue": 1.25
  },
  {
    "lineNotation": "N[C@H](Cc1ccc(OC(=O)NOC(=O)Oc2ccccc2)cc1)C(=O)O",
    "metric": "Ratio",
    "reportedValue": "< 1"
  },
  {
    "lineNotation": "O=C(NOC(=O)Oc1ccccc1)OCCc1ccccc1",
    "metric": "Ratio",
    "reportedValue": 25
  },
  {
    "lineNotation": "CCCCOC(=O)NOC(=O)Oc1ccccc1",
    "metric": "Ratio",
    "reportedValue": 2.4
  },
  {
    "lineNotation": "O=C(O)CCCCOC(=O)NOC(=O)Oc1ccccc1",
    "metric": "Ratio",
    "reportedValue": 2.3
  }
]

* * *

Each record here notes measured second-order inactivation rate constant (k_i).
Target: Beta-lactamase (Enterobacter cloacae)
Test: Irreversible inhibition of Enterobacter cloacae P99 beta-lactamase using cephalothin as substrate by spectrophotometric analysis
metric: second-order inactivation rate constant (k_i) (×10³ /M/s)

[
  {
    "lineNotation": "O=C(O)CCCCOC(=O)NOC(=O)Oc1ccccc1",
    "reportedValue": 8.5
  },
  {
    "lineNotation": "CCCCOC(=O)NOC(=O)Oc1ccccc1",
    "reportedValue": 1.1
  },
  {
    "lineNotation": "O=C(NOC(=O)Oc1ccccc1)OCc1ccccc1",
    "reportedValue": 2
  },
  {
    "lineNotation": "O=C(NOC(=O)Oc1ccccc1)OCCc1ccccc1",
    "reportedValue": 1.4
  }
]

* * *

Each record here notes measured K.
Target: Beta-lactamase (Enterobacter cloacae)
Assay: Irreversible inhibition of Enterobacter cloacae P99 beta-lactamase assessed as second-order rate constant for enzyme-inhibitor complex using cephalothin as substrate by spectrophotometric analysis

[
  {
    "lineNotation": "O=C(NOC(=O)Oc1ccccc1)OCc1ccccc1",
    "K (×10³ /M/s)": 6.1
  },
  {
    "lineNotation": "CCCCOC(=O)NOC(=O)Oc1ccccc1",
    "K (×10³ /M/s)": 3.6
  }
]
